The values you see were collected from patent US20230183352A1.

Target: T1, Claudin 18.2 (CLDN18.2), expressed on CHOS-CLDN 18.2 / HEK293-CLDN 18.2 / HCC827-CLDN 18.2 cells (human, UniProt P56856-2 1-261)
T1 construct: whole, on cells; The species is not repeated for the CHOS-CLDN 18.2 cells; also called claudin-18A2
Test: FACS, CHOS-CLDN18.2 cells, 0.005 µg/ml
MEASURED ATTRIBUTE: FACS reading

**Q:** Given the binder QP14641461 (antibody, human IgG1, kappa, V domains shown, Humanized from QP207208) VH: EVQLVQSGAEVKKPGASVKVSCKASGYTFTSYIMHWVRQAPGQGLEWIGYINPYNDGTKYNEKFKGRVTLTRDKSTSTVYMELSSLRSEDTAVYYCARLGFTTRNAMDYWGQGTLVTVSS VL: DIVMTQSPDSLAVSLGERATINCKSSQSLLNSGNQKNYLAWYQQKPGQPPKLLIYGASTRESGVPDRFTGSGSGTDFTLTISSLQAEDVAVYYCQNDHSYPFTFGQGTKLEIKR , what is its reported FACS reading?
**A:** 5980
